These measurements were taken from patent US20260174875A1.

Molecular target: T1, human GIP receptor (human, UniProt P48546 22-466)
T1 sequence (looked up): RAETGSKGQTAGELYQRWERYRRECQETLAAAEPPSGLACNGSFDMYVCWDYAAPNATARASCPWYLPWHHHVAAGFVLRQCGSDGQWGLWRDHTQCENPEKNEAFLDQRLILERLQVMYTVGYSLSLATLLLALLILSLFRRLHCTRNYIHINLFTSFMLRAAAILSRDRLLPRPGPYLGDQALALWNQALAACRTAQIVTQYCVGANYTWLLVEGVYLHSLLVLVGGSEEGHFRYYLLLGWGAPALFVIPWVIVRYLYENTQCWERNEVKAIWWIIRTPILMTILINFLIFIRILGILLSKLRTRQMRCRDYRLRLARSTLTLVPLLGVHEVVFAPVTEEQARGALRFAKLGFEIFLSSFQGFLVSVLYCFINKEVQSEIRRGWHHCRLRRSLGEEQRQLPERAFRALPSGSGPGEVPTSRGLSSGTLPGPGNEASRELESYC
Test: cell-based or functional assay
Numbered stars: 1 amine (or outer) side, 2 acyl side, 3 side chain; on linkers, the order of the positions; unused ones are H or OH. Square brackets hold non-standard residues; d marks the D form. Side chains are listed from the residue outwards. * marks the point of attachment. C20 diacid = O=C(O)CCCCCCCCCCCCCCCCCCC(=O)*; C18 diacid = O=C(O)CCCCCCCCCCCCCCCCC(=O)*; γGlu = O=C(O)[C@H](CCC(=O)[*:2])N[*:1]; Chem. 28 = not defined here; AEEA = NCCOCCOCC(=O)O; Aib = CC(C)(N)C(=O)O
readout-name: hGIPR Potency, no HSA, EC50 [pM]

Reference set (3 entries):
{"columns": ["binder", "hGIPR Potency, no HSA, EC50 [pM]"],
 "data": [
  ["Compound 105 (reading uncertain) peptide: Y[Aib]EGTFTSDYSILLEEQAAREFIEWLLAGGPSSGALQAPGQAPLASHLSTAQTARLSAELHK(Chem. 28)LATLPRTETGSGSP-NH2", "3.08 pM"],
  ["Compound 81 (peptide) peptide: Y[Aib]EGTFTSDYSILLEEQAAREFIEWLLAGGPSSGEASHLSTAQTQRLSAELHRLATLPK([AEEA-AEEA-γGlu-C18 diacid])TETGSGSP-NH2", "3.31 pM"],
  ["Compound 48 (reading uncertain) peptide: Y[Aib]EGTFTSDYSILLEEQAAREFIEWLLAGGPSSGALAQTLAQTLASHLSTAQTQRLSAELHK(Chem. 28)LATLPRTETGSGSP-NH2", "7.02 pM"]
]}

Now for a further binder.
The recorded hGIPR Potency, no HSA, EC50 [pM] for Compound 77 (peptide) peptide: Y[Aib]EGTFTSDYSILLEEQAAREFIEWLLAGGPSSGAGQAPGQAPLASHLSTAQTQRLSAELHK([AEEA-AEEA-γGlu-C20 diacid])LATLPRTETGSGSP-NH2 is 2.53 pM
